# Test system: pathogenic bacteria
# test_name: MIC by microdilution broth method (NCCLS M7-A4), in vitro antibacterial activity
# Format: cell-based
# test_conditions: Streptococcus pneumoniae, Organism C: fluoroquinolone-resistant clinical isolate of Streptococcus pneumoniae (QRDR amino acid substitutions)
Counter-ions that a name gives are not always drawn.
measured_metric: log10 of MIC (log10 of the value in µg/mL)

# compound, log10 of MIC
records = [
    ("COc1c(N2CCC/C(=C(\\Cl)CN)CC2)c(F)cc2c(=O)c(C(=O)O)cn(C3CC3)c12", 0.60),
    ("CN(C)CC(Cl)=C1CCN(c2cc3c(cc2F)c(=O)c(C(=O)O)cn3C2CC2)CC1 [Compound 298, Trifluoroacetic Acid Salt]", 1.20),
    ("NCC(Cl)=C1CCN(c2nc3c(cc2F)c(=O)c(C(=O)O)cn3-c2ccc(F)cc2F)CC1", 0.00),
    ("CNC/C(F)=C1/CCCN(c2c(F)cc3c(=O)c(C(=O)O)cn(C4CC4)c3c2OC)C1.Cl", 0.60),
    ("COc1c(N2CCC/C(=C(\\Cl)CN)C2)c(F)cc2c(=O)c(C(=O)O)cn([C@@H]3C[C@@H]3F)c12", -0.60),
    ("COc1c(N2CCC/C(=C(/F)CN)C2)c(F)cc2c(=O)c(C(=O)O)cn([C@@H]3C[C@@H]3F)c12", 0.90),
    ("COc1c(N2CCC(=C(Cl)CN)CC2)c(F)cc2c(=O)c(C(=O)O)cn([C@@H]3C[C@@H]3F)c12", 0.00),
    ("Cc1c(F)c(N2CCC/C(=C\\CN)C2)cc2c1c(=O)c(C(=O)O)cn2C1CC1", 1.20),
    ("COc1c(N2CCC(=C(Br)CN)CC2)c(F)cc2c(=O)c(C(=O)O)cn(C3CC3)c12", -0.30),
    ("CC(C)NCC(F)=C1CCN(c2nc3c(cc2F)c(=O)c(C(=O)O)cn3C2CC2)CC1", 0.90),
    ("COc1c(N2CC(=C(Cl)CN)C2)c(F)cc2c(=O)c(C(=O)O)cn(C3CC3)c12", 0.30),
    ("CNCC(F)=C1CN(c2cc3c(cc2F)c(=O)c(C(=O)O)cn3C2CC2)C1.O=C(O)C(F)(F)F", 0.30),
    ("NCC=C1CN(c2c(F)cc3c(=O)c(C(=O)O)cn(-c4nc(N)c(F)cc4F)c3c2Cl)C1", 0.00),
    ("NC/C(F)=C1/CCCN(c2c(F)cc3c(=O)c(C(=O)O)cn(C4CC4)c3c2OC(F)F)C1", 0.00),
    ("CNCC(Cl)=C1CCN(c2nc3c(cc2F)c(=O)c(C(=O)O)cn3C2CC2)CC1", 0.30),
    ("CNCC(Cl)=C1CN(c2c(F)cc3c(=O)c(C(=O)O)cn(-c4nc(N)c(F)cc4F)c3c2Cl)C1", 0.90),
    ("C/C(CN)=C1/CCCN(c2nc3c(cc2F)c(=O)c(C(=O)O)cn3C2CC2)C1", 0.90),
    ("NCC(Cl)=C1CCN(c2c(F)c(N)c3c(=O)c(C(=O)O)cn(C4CC4)c3c2F)CC1", -0.30),
]

====

The following compounds are shown together with reported MIC values.
# System: pathogenic bacteria
# test_name: MIC by microdilution broth method (NCCLS M7-A4), in vitro antibacterial activity
# Type: cell-based
# test_conditions: Staphylococcus aureus, Organism A: Staphylococcus aureus OC4172; read-out: MIC

# compound, censoring_operator, MIC / µg/mL
measured = [
    ("NC/C=C1/CCCN(c2cc3c(cc2F)c(=O)c(C(=O)O)cn3C2CC2)C1 [Compound 383]", "=", 0.12),
    ("CN(C)CC(F)=C1CCN(c2cc3c(cc2F)c(=O)c(C(=O)O)cn3C2CC2)CC1 [Compound 299]", "=", 0.5),
    ("CCNCC(Cl)=C1CCN(c2c(F)cc3c(=O)c(C(=O)O)cn(C4CC4)c3c2OC)CC1 [Compound 75]", "=", 0.12),
    ("COc1c(N2CCC/C(=C(\\C)CN)C2)c(F)cc2c(=O)c(C(=O)O)cn(C3CC3)c12 [Compound 302]", "≤", 0.03),
]

====

# Test system: pathogenic bacteria
# test_name: MIC by microdilution broth method (NCCLS M7-A4), in vitro antibacterial activity
# Assay type: cell-based
# test_conditions: Streptococcus pneumoniae, Organism C: fluoroquinolone-resistant clinical isolate of Streptococcus pneumoniae (QRDR amino acid substitutions)
Where a name gives a salt, the structure may show the parent alone.
# Lookup of reported MIC keyed by entry

# compound, target, censoring_operator, MIC (mg/L)
records = [
    ("COc1c(N2CCC/C(=C(\\Cl)CN)C2)c(F)cc2c(=O)c(C(=O)O)cn(C3CC3)c12 [Compound 261, Trifluoroacetic Acid Salt]", "pathogenic bacteria", "=", 0.06),
    ("CC(CN)=C1CN(c2cc3c(c(C)c2F)c(=O)c(C(=O)O)cn3C2CC2)C1", "pathogenic bacteria", "=", 1),
    ("Cc1c(N2CCC/C(=C(\\F)CN)C2)c(F)cc2c(=O)c(C(=O)O)cn(C3CC3)c12", "pathogenic bacteria", "=", 0.25),
    ("CCOC(=O)OCC(F)=C1CCN(c2nc3c(cc2F)c(=O)c(C(=O)O)cn3C2CC2)CC1", "pathogenic bacteria", ">", 16),
    ("COc1c(N2CCC(=C(Cl)CN3CCCCC3)CC2)c(F)cc2c(=O)c(C(=O)O)cn(C3CC3)c12", "pathogenic bacteria", "=", 4),
    ("O=C(O)c1cn(-c2ccc(F)cc2F)c2nc(N3CCC(=CCO)CC3)c(F)cc2c1=O", "pathogenic bacteria", "=", 16),
    ("C/C(CN)=C1\\CCCN(c2c(F)cc3c(=O)c(C(=O)O)cn4c3c2OC[C@@H]4C)C1", "pathogenic bacteria", "=", 16),
]

====

# Tested on: pathogenic bacteria
# test_name: MIC by microdilution broth method (NCCLS M7-A4), in vitro antibacterial activity
# Type: cell-based
# test_conditions: Streptococcus pneumoniae, Organism C: fluoroquinolone-resistant clinical isolate of Streptococcus pneumoniae (QRDR amino acid substitutions)
Where a name gives a salt, the structure may show the parent alone.
Each record here notes measured MIC.
measured_metric: MIC (µg/mL)

# compound, display_unit, censoring_operator, observed_result
rows = [
    ("NC/C(Cl)=C1\\CCCN(c2nc3c(cc2F)c(=O)c(C(=O)O)cn3C2CC2)CC1", "µg/mL", "=", 4),
    ("CNCC(Cl)=C1CCN(c2c(F)cc3c(=O)c(C(=O)O)cn(C4CC4)c3c2OC)CC1 [Compound 72, Trifluoroacetic Acid Salt]", "µg/mL", "=", 0.5),
    ("NC/C=C1/CCCN(c2nc3c(cc2F)c(=O)c(C(=O)O)cn3C2CC2)C1", "µg/mL", ">", 16),
    ("C=CC(Cl)=C1CCN(c2nc3c(cc2F)c(=O)c(C(=O)O)cn3C2CC2)CC1", "µg/mL", "=", 8),
    ("NC/C(Cl)=C1/CCCN(c2cc3c(cc2F)c(=O)c(C(=O)O)cn3C2CC2)C1", "µg/mL", "=", 0.5),
    ("COc1c(N2CCC/C(=C(/Cl)CN)C2)c(F)cc2c(=O)c(C(=O)O)cn(C3CC3)c12", "µg/mL", "=", 4),
    ("NCC(F)=C1CN(c2nc3c(cc2F)c(=O)c(C(=O)O)cn3-c2ccc(F)cc2F)C1", "µg/mL", "=", 2),
    ("O=C(O)c1cn(C2CC2)c2nc(N3CC(=C(Cl)CO)C3)c(F)cc2c1=O", "µg/mL", "=", 16),
    ("COc1c(N2CCC/C(=C(/Cl)CN)CC2)c(F)cc2c(=O)c(C(=O)O)cn(C3CC3)c12", "µg/mL", "=", 8),
    ("CN(C)CC(F)=C1CCN(c2cc3c(cc2F)c(=O)c(C(=O)O)cn3C2CC2)CC1", "µg/mL", ">", 16),
    ("NC/C(F)=C1/CCCN(c2cc3c(cc2F)c(=O)c(C(=O)O)cn3C2CC2)CC1", "µg/mL", "=", 16),
    ("NC/C(F)=C1\\COCCN(c2cc3c(cc2F)c(=O)c(C(=O)O)cn3C2CC2)C1", "µg/mL", "=", 8),
    ("NCC(Cl)=C1CCN(c2c(F)cc3c(=O)c(C(=O)O)cn(C4CC4)c3c2OCF)CC1", "µg/mL", ">", 16),
    ("CC(C)NCC(F)=C1CCN(c2cc3c(cc2F)c(=O)c(C(=O)O)cn3C2CC2)CC1", "µg/mL", "=", 16),
    ("C[C@H]1COc2c(N3CC(=C(Cl)CN)C3)c(F)cc3c(=O)c(C(=O)O)cn1c23", "µg/mL", "=", 16),
    ("C[C@H]1COc2c(N3CC(=C(Cl)CO)C3)c(F)cc3c(=O)c(C(=O)O)cn1c23", "µg/mL", ">", 16),
    ("CN(C)CC(F)=C1CCN(c2nc3c(cc2F)c(=O)c(C(=O)O)cn3C2CC2)CC1", "µg/mL", "=", 1),
    ("CNCC(Cl)=C1CN(c2cc3c(cc2F)c(=O)c(C(=O)O)cn3C2CC2)C1 [Compound 431, trifluoroacetic acid salt]", "µg/mL", "=", 1),
    ("NC/C(Cl)=C1/CCCN(c2nc3c(cc2F)c(=O)c(C(=O)O)cn3C2CC2)C1", "µg/mL", "=", 4),
    ("CC(C)NCC(Cl)=C1CCN(c2c(F)cc3c(=O)c(C(=O)O)cn(C4CC4)c3c2OC(F)F)CC1", "µg/mL", "=", 8),
    ("O=CN1CCN(CC(Cl)=C2CCN(c3nc4c(cc3F)c(=O)c(C(=O)O)cn4C3CC3)CC2)CC1 [Compound 291, Trifluoroacetic Acid Salt]", "µg/mL", ">", 16),
    ("NC/C(F)=C1\\CCCN(c2cc3c(cc2F)c(=O)c(C(=O)O)cn3C2CC2)CC1", "µg/mL", "=", 8),
    ("COc1c(N2CCC(=C(Cl)CNC(C)C)CC2)c(F)cc2c(=O)c(C(=O)O)cn(C3CC3)c12", "µg/mL", "=", 4),
    ("COc1c(N2CCC/C(=C(\\F)CN)C2)c(F)cc2c(=O)c(C(=O)O)cn(C3CC3)c12 [Compound 303, Trifluoroacetic Acid Salt]", "µg/mL", "=", 0.12),
    ("NC/C=C1/CCCN(c2cc3c(cc2F)c(=O)c(C(=O)O)cn3C2CC2)C1", "µg/mL", ">", 16),
    ("C[C@H]1COc2c(N3CCC/C(=C(\\Cl)CN)C3)c(F)cc3c(=O)c(C(=O)O)cn1c23", "µg/mL", "=", 0.5),
    ("C[C@H]1COc2c(N3CCC/C(=C(/Cl)CN)CC3)c(F)cc3c(=O)c(C(=O)O)cn1c23", "µg/mL", "=", 16),
    ("CC1COc2c(N3CCC(=CCN)C(O)C3)c(F)cc3c(=O)c(C(=O)O)cn1c23 (stereo not drawn)", "µg/mL", "=", 16),
    ("COc1c(N2CCC(=C(Cl)CN3CCCC3)CC2)c(F)cc2c(=O)c(C(=O)O)cn(C3CC3)c12", "µg/mL", "=", 8),
    ("COc1c(N2CC/C(=C(\\Cl)CN)C2)c(F)cc2c(=O)c(C(=O)O)cn(C3CC3)c12", "µg/mL", "=", 1),
]
